All values here come from paper PMC5540273.

System: TRKB;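 further: KINOMEscan kinase panel screen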
CONDITIONS: concentration: 1 μM, replicates: in singlicate; n = 1
# %Inh values compiled below

{"COMPOUND": "COc1cccc(C2=C(Nc3cccc(C(=O)O)c3)C(=O)NC2=O)c1", "%Inh / %": 0}
{"COMPOUND": "Cc1cc(Nc2nc(-c3cccc(C)n3)nc3ccccc23)ccn1", "%Inh / %": 0}
{"COMPOUND": "Cc1nnc(-c2ccc3ncn(-c4ccc(S(C)=O)cc4)c3c2)o1 (stereo not drawn)", "%Inh / %": 0}
{"COMPOUND": "Cc1ccccc1COc1cc(-n2cnc3cc(Cl)ccc32)sc1C(N)=O", "%Inh / %": 0}
{"COMPOUND": "COc1cc2ncn(-c3cc(OCc4ccncc4)c(C(N)=O)s3)c2cc1OC", "%Inh / %": 0}
{"COMPOUND": "COc1cccc(-n2cnc3c(N)ncnc32)c1", "%Inh / %": 48}
{"COMPOUND": "COC(=O)c1c(-c2ccccc2)c2cc(Br)ccc2c(=O)n1Cc1ccc(NC(=O)CCC(=O)O)cc1", "%Inh / %": 0}
{"COMPOUND": "CCC(=O)c1c(-c2ccccc2)c2cc(Cl)ccc2c(=O)n1Cc1cc(S(C)(=O)=O)n(CCC(C)(C)O)n1", "%Inh / %": 0}
{"COMPOUND": "Nc1n[nH]c2nnc(-c3ccccc3)c(-c3ccccc3)c12", "%Inh / %": 14}
